- Test system: Monocotyledonous and dicotyledonous weed
- assay_overview: Post-emergence test experiment, weed control effect (Table 2)
- Format: in vivo
- Set-up: key: Level 10: completely dead; Level 9: above 90% growth inhibition rate; Level 8: above 80% growth inhibition rate; Level 7: above 70% growth inhibition rate; Level 6: above 60% growth inhibition rate; Level 5: above 50% growth inhibition rate; Level 4: above 30% growth inhibition rate; Level 3: above 20% growth inhibition rate; Level 2: above 10% growth inhibition rate; Level 1: above 1-10% growth inhibition rate; Level 0: no effect
- condition_details: 120 g/ha, 3 weeks after spraying, greenhouse
Each entry below carries its recorded weed control effect, Rorippa indica (level).
parameter: weed control effect, Rorippa indica (level)

compound="Cc1ccn(Cc2c(S(C)(=O)=O)ccc(C(=O)c3cnn(C)c3OC(=O)c3cn(C)nc3C)c2Cl)n1 [Compound 06]" observed_result=10
compound="Cc1cc(C)n(Cc2c(S(C)(=O)=O)ccc(C(=O)c3c(C4CC4)nn(C)c3OC(=O)c3cn(C)nc3C)c2Cl)n1 [Compound 11]" observed_result=0

* * *

- Test system: main crop (wheat, corn, rice, soybean, cotton, oilseed, millet and sorghum)
- assay_overview: Post-emergence test experiment, main crops (Table 2)
- Format: in vivo
- Set-up: key: Level 10: completely dead; Level 9: above 90% growth inhibition rate; Level 8: above 80% growth inhibition rate; Level 7: above 70% growth inhibition rate; Level 6: above 60% growth inhibition rate; Level 5: above 50% growth inhibition rate; Level 4: above 30% growth inhibition rate; Level 3: above 20% growth inhibition rate; Level 2: above 10% growth inhibition rate; Level 1: above 1-10% growth inhibition rate; Level 0: no effect
- condition_details: 120 g/ha, 3 weeks after spraying, greenhouse
parameter: effect on crop, corn (level)

molecule="Cc1ccn(Cc2c(S(C)(=O)=O)ccc(C(=O)c3c(C4CC4)nn(C)c3OC(=O)c3cn(C)nc3C)c2Cl)n1 [Compound 09]" target_desc="main crop (wheat, corn, rice, soybean, cotton, oilseed, millet and sorghum)" observed_result=0
molecule="Cc1cnn(Cc2c(S(C)(=O)=O)ccc(C(=O)c3c(C)nn(C)c3OC(=O)c3cnn(C)c3)c2Cl)c1 [Compound 14]" target_desc="main crop (wheat, corn, rice, soybean, cotton, oilseed, millet and sorghum)" observed_result=0
molecule="CCn1ncc(C(=O)c2ccc(S(C)(=O)=O)c(Cn3cc(C)cn3)c2C)c1OC(=O)c1cnn(C)c1 [Compound 87]" target_desc="main crop (wheat, corn, rice, soybean, cotton, oilseed, millet and sorghum)" observed_result=0
molecule="Cc1cnn(Cc2c(S(C)(=O)=O)ccc(C(=O)c3cnn(C)c3OC(=O)c3cn(C)nc3C)c2Cl)c1 [Compound 07]" target_desc="main crop (wheat, corn, rice, soybean, cotton, oilseed, millet and sorghum)" observed_result=0
molecule="Cc1cc(C)n(Cc2c(S(C)(=O)=O)ccc(C(=O)c3c(C4CC4)nn(C)c3OC(=O)c3cn(C)nc3C)c2Cl)n1 [Compound 11]" target_desc="main crop (wheat, corn, rice, soybean, cotton, oilseed, millet and sorghum)" observed_result=0
molecule="CCn1nc(C2CC2)c(C(=O)c2ccc(S(C)(=O)=O)c(Cn3cc(C)cn3)c2Cl)c1OC(=O)c1cnn(C)c1 [Compound 91]" target_desc="main crop (wheat, corn, rice, soybean, cotton, oilseed, millet and sorghum)" observed_result=0
molecule="Cc1cnn(Cc2c(S(C)(=O)=O)ccc(C(=O)c3c(C4CC4)nn(C)c3OC(=O)c3cn(C)nc3C)c2Cl)c1 [Compound 12]" target_desc="main crop (wheat, corn, rice, soybean, cotton, oilseed, millet and sorghum)" observed_result=0
molecule="Cc1nn(C)cc1C(=O)Oc1c(C(=O)c2ccc(S(C)(=O)=O)c(Cn3cc(Cl)cn3)c2Cl)c(C2CC2)nn1C [Compound 10]" target_desc="main crop (wheat, corn, rice, soybean, cotton, oilseed, millet and sorghum)" observed_result=0
molecule="Cc1ccn(Cc2c(S(C)(=O)=O)ccc(C(=O)c3c(C4CC4)nn(C)c3OC(=O)c3cnn(C)c3)c2Cl)n1 [Compound 21]" target_desc="main crop (wheat, corn, rice, soybean, cotton, oilseed, millet and sorghum)" observed_result=0
molecule="Cc1cnn(Cc2c(S(C)(=O)=O)ccc(C(=O)c3c(C4CC4)nn(C)c3OC(=O)c3cnn(C)c3)c2Cl)c1 [Compound 22]" target_desc="main crop (wheat, corn, rice, soybean, cotton, oilseed, millet and sorghum)" observed_result=0
molecule="Cc1cc(C)n(Cc2c(S(C)(=O)=O)ccc(C(=O)c3c(C)nn(C)c3OC(=O)c3cn(C)nc3C)c2Cl)n1 [Compound 03]" target_desc="main crop (wheat, corn, rice, soybean, cotton, oilseed, millet and sorghum)" observed_result=0
molecule="Cc1ccn(Cc2c(S(C)(=O)=O)ccc(C(=O)c3cnn(C)c3OC(=O)c3cn(C)nc3C)c2Cl)n1 [Compound 06]" target_desc="main crop (wheat, corn, rice, soybean, cotton, oilseed, millet and sorghum)" observed_result=0
molecule="CCOc1c(C(=O)Oc2c(C(=O)c3ccc(S(C)(=O)=O)c(Cn4cc(C)cn4)c3Cl)cnn2C)cnn1C [Compound 23]" target_desc="main crop (wheat, corn, rice, soybean, cotton, oilseed, millet and sorghum)" observed_result=0
molecule="CCOc1c(C(=O)Oc2c(C(=O)c3ccc(S(C)(=O)=O)c(Cn4cc(Cl)cn4)c3C)c(C)nn2CC)cnn1C [Compound 82]" target_desc="main crop (wheat, corn, rice, soybean, cotton, oilseed, millet and sorghum)" observed_result=0
